target: tyrosinase; experiment: spectrophotometric tyrosinase inhibition assay with L-DOPA as substrate; assay type: biochemical, Bacillus subtilis NCTC 10400; conditions: L-DOPA 0.5 mM, pH 6.8, 25 °C, means ± SEs (n = 3), read-out: IC50
Assign labels as follows, please: label 1 for IC50 below 10 µM; label 0 for IC50 equal to or exceeding 10 µM.

>  <compound>
COc1ccc(-n2c(SCC(=O)Oc3ccc4c(C)cc(=O)oc4c3)nnc2-c2cc3cccc(OC)c3o2)cc1 [Compound 17c]

>  <category.label>
label 0

$$$$

Query: Dear colleague, could you confirm whether IC50 of COc1ccc(-n2c(SCC(=O)Oc3ccc4c(C)cc(=O)oc4c3)nnc2-c2cc3cc(Cl)ccc3o2)cc1 [Compound 17g] falls below 10 µM? Thanks.
Response: label 1

Query: Given Cc1cc(=O)oc2cc(OC(=O)CSc3nnc(-c4cc5cc(Br)ccc5o4)n3-c3ccccc3)ccc12 [Compound 17d] , is recorded IC50 strictly lower than 10 µM?
Response: label 1

Query: Record Cc1cc(=O)oc2cc(OC(=O)CSc3nnc(-c4cc5c(ccc6ccccc65)o4)n3-c3ccccc3)ccc12 [Compound 17h] : is its IC50 strictly below 10 µM?
Response: label 1

Query: Quick check: IC50 of Cc1cc(=O)oc2cc(OC(=O)CSc3nnc(-c4cc5ccccc5o4)n3-c3ccccc3)ccc12 [Compound 17a] under 10 µM?
Response: label 1

Query: Quick check: does COc1cccc2cc(-c3nnc(SCC(=O)Oc4ccc5c(C)cc(=O)oc5c4)n3-c3ccccc3)oc12 [Compound 17b] have IC50 under 10 µM?
Response: label 0

* * *

tested on: tyrosinase; assay: spectrophotometric tyrosinase inhibition assay with L-DOPA as substrate; format: biochemical, Bacillus subtilis NCTC 10400; conditions: L-DOPA 0.5 mM, pH 6.8, 25 °C, test concentration not given
result.type: %Age Inhibition (%)
Just the number please, in %, no unit attached.

Known results for molecules:
>  <molecule>
O=c1cc(CO)occ1O [Kojic acid, reference compound]

>  <result.unit>
%

>  <%Age Inhibition>
6.79

$$$$
>  <molecule>
Cc1cc(=O)oc2cc(OC(=O)CSc3nnc(-c4cc5c(ccc6ccccc65)o4)n3-c3ccccc3)ccc12 [Compound 17h]

>  <result.unit>
%

>  <%Age Inhibition>
30.62

$$$$
>  <molecule>
COc1ccc(-n2c(SCC(=O)Oc3ccc4c(C)cc(=O)oc4c3)nnc2-c2cc3cccc(OC)c3o2)cc1 [Compound 17c]

>  <result.unit>
%

>  <%Age Inhibition>
5.11

$$$$

For the molecule COc1ccc(-n2c(SCC(=O)Oc3ccc4c(C)cc(=O)oc4c3)nnc2-c2cc3cc(Br)ccc3o2)cc1 [Compound 17e] , the measured %Age Inhibition on tyrosinase was 30.85
